The measurements presented in this section are drawn from PubChem BioAssay.

- TARGET OR SYSTEM: Voltage-gated potassium channel subunit beta-2 (Rattus norvegicus)
- TEST: enhancers of rat Kvbeta2 NADPH turnover – biochemical, NADPH fluorescence, primary screen (AID 623);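 note: fluorescence intensity change per second fitted from 20 to 320 s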
- CONDITION DESCRIPTION: Recombinant KvBeta, NADPH fluorescence decrease slope, 10 min; at 10 µM; hits give low values
Task for the reader: assign each of the following compounds its reported NADPH fluorescence slope.
Give bare numbers.

CCCN1Cc2cccc(C(=O)NCc3cccs3)c2C1=O; -4e-05
CCn1cc(C2=NOC(C(=O)Nc3cc(C)nn3-c3ccccc3)C2)c(C)n1 (centres undefined); 9.7e-06

Batch request: NADPH fluorescence slope per item, same order as input.
1. O=C(COc1nnnc2ccccc12)N1CCCc2ccccc21
2. O=C(OCc1nnc(-c2ccccc2)o1)c1ccc(S(=O)(=O)NCc2ccco2)cc1

## Output
-7.5e-05
-0.000324
